# Population Apoptotic (%) values compiled below
Tested on: U2OS
Assay: Multiplex assay against U2OS
Type: toxicity, cell-based
Conditions: human, 48 h, 10 µM, compound concentration 10 uM, replicate 2
Write down the numeric answer in % and omit the unit.

>  <molecule>
Cc1c(CC(=O)O)c2cccnc2n1Cc1ccc(S(C)(=O)=O)cc1C(F)(F)F

>  <reading>
100

$$$$
>  <molecule>
COc1cccc2c1c(NS(=O)(=O)c1ccc(Cl)s1)nn2Cc1cccc(CNC(=O)C(C)(C)O)c1

>  <reading>
100

$$$$
>  <molecule>
O=C(NCCN1CCC(n2c(=O)[nH]c3cc(Cl)ccc32)CC1)c1ccc(F)cc1 [HALOPEMIDE]

>  <reading>
77

$$$$
>  <molecule>
Cc1cccc(NC(=O)CN2CCC(c3ccccn3)CC2)c1.Cl.Cl

>  <reading>
83

$$$$
>  <molecule>
O=C(CCCc1ccccc1)Nc1nc2ccccc2c(=O)s1

>  <reading>
95

$$$$

Input: Consider the molecule `CCCOc1ccc2[nH]cc(C3=CCNCC3)c2n1.Cl` . State its measured Population Apoptotic (%).
Output: 94

Input: Give the value of Population Apoptotic (%) reported for the following: Cl.NCCc1ccc(O)c(O)c1 [DOPAMINE HYDROCHLORIDE]
Output: 100

Input: Report measured Population Apoptotic (%); entry is `CN(C)C(=O)Cn1cc(-c2ccc(-c3cncc4ccccc34)cc2)cn1`
Output: 92
